Molecular target: CDK8/CycC (Homo sapiens)
Sequence (P49336 whole entry): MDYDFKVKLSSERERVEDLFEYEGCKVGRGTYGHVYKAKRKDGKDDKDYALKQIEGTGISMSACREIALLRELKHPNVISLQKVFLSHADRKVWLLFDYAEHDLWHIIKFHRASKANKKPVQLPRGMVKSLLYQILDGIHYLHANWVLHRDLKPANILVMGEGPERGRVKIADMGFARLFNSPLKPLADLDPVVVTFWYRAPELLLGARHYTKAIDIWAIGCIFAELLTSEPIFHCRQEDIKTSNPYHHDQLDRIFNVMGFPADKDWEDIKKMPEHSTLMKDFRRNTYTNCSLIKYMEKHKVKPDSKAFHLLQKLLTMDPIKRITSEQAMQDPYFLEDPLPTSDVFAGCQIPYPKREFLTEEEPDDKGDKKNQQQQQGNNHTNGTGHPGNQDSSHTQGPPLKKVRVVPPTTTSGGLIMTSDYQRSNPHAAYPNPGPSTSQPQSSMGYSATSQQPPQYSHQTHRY
Sequence (P24863 whole entry partner): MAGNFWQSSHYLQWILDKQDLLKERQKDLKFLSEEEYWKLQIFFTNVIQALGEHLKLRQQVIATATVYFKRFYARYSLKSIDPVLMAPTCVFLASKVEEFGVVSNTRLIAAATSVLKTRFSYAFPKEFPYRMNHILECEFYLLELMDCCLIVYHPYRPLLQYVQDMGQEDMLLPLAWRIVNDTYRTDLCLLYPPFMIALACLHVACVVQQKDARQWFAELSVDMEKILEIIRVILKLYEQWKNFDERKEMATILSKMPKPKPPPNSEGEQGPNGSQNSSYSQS
Assay: Radiometric protein kinase assay (33PanQinase Activity Assay, ProQinase)
Conditions: 1.0 μM ATP, 1.0 μg/50 μL substrate RBER-IRStide, duplicate measurements, read-out: CDK8 Kinase inhibition IC50
endpoint: IC50 (nM)

1) CNc1nccc(-c2sc(NC(=O)Nc3ccc(Cl)c(C(F)(F)F)c3)nc2C)n1 : 12
2) CNc1nccc(-c2sc(NC(=O)Nc3ccc(Cl)c(C)c3)nc2C)n1 : 8
3) CNc1ncc(C#N)c(-c2sc(NC(=O)Nc3ccc(CN4CCN(C)CC4)c(C(F)(F)F)c3)nc2C)n1 : 50
4) CNc1nccc(-c2sc(NC(=O)Nc3cccc(SC(F)(F)F)c3)nc2C)n1 : 20
5) CCNc1nccc(-c2sc(NC(=O)Nc3ccc(CN4CCN(CC)CC4)c(C(F)(F)F)c3)nc2C)n1 : 90
6) CCN1CCN(Cc2ccc(NC(=O)Nc3nc(C)c(-c4nc(NC)ncc4Cl)s3)cc2C(F)(F)F)CC1 : 21
7) CNc1ncc(C#N)c(-c2sc(NC(=O)Nc3ccc(CN4CCN(S(C)(=O)=O)CC4)c(C(F)(F)F)c3)nc2C)n1 : 272
8) CC(=O)N1CCN(Cc2ccc(NC(=O)Nc3nc(C)c(-c4ccnc(N(C)C)n4)s3)cc2C(F)(F)F)CC1 : 202

# credit: patent US11325900B2
